IC50 listing for selected compounds.
target.of.assay: PDGFRβ kinase, purified cytoplasmic domain PDGFR-b protein (Homo sapiens (Human), UniProt P09619)
Sequence (P09619 554-1106): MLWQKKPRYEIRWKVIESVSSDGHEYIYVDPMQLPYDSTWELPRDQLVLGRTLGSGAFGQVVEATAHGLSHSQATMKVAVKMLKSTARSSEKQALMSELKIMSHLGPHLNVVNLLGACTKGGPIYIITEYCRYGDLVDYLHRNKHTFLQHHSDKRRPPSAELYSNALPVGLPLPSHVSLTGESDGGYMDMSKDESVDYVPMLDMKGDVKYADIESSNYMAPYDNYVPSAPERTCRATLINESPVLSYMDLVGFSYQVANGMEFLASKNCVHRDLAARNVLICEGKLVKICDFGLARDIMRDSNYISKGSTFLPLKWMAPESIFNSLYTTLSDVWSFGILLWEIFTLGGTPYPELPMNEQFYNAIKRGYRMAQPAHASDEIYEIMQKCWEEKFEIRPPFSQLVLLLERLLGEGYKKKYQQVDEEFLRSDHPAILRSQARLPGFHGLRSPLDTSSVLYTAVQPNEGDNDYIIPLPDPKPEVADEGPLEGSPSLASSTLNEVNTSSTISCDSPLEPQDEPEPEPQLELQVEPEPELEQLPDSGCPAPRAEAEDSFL
The answer is to be given in µM; state only the numeric part.

Answered examples (3):
compound	IC50, µM
Cc1cccc(NC(=O)Nc2ccc(-c3[nH]c4ccccc4c3C(N)=O)cc2)c1 [Compound 1]	0.14
CCc1cccc(NC(=O)Nc2ccc(-c3[nH]c4ccccc4c3C(N)=O)cc2)c1 [Compound 4]	0.037
Cc1ccc(F)c(NC(=O)Nc2ccc(-c3[nH]c4ccccc4c3C(N)=O)cc2)c1 [Compound 3]	0.267

Switching to the query record.
Which IC50 value belongs to NC(=O)c1c(-c2ccc(NC(=O)Nc3cccc(C(F)(F)F)c3)cc2)[nH]c2ccccc12 [Compound 2] ? 0.061

----------
target.of.assay: VEGFR2 (KDR) kinase, purified cytoplasmic domain KDR protein (Homo sapiens (Human), UniProt P35968)
Sequence (P35968 786-1356, species assumed): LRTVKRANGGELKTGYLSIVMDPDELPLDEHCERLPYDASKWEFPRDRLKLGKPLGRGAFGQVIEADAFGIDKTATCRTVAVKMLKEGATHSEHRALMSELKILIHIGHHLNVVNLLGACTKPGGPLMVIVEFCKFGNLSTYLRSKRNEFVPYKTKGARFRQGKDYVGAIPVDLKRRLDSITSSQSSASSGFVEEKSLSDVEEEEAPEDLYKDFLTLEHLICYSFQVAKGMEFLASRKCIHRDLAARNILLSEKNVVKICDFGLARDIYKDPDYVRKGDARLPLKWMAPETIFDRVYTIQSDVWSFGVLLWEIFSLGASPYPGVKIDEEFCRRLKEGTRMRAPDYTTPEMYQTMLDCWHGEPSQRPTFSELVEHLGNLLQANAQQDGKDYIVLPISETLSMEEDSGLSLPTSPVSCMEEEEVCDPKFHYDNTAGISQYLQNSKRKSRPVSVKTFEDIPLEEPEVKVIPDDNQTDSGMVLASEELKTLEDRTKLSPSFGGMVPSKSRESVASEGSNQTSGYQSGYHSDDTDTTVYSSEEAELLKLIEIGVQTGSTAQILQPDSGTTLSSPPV
property.name: pIC50
Friendly reminder that pIC50 comes from taking -log10 of the concentration in mol/L.

Answered examples (3):
cpd.smiles	endpoint.value
CCc1cccc(NC(=O)Nc2ccc(-c3[nH]c4ccccc4c3C(N)=O)cc2)c1	8.15
NC(=O)c1c(-c2ccc(NC(=O)Nc3cccc(C(F)(F)F)c3)cc2)[nH]c2ccccc12	8.15
Cc1cccc(NC(=O)Nc2ccc(-c3[nH]c4ccccc4c3C(N)=O)cc2)c1	7.89

Switching to the query record.
Which pIC50 value belongs to Cc1ccc(F)c(NC(=O)Nc2ccc(-c3[nH]c4ccccc4c3C(N)=O)cc2)c1 ? 7.77

----------
target.of.assay: VEGFR2 (KDR) kinase, purified cytoplasmic domain KDR protein (Homo sapiens (Human))
pIC50: −log10 of the molar value.
property.name: pIC50

cpd.smiles	endpoint.value
NC(=O)c1c(-c2cccc(NC(=O)Nc3cccc(C(F)(F)F)c3)c2)[nH]c2ccccc12	< 5.00

Switching to the query record.
Give recorded pIC50 with VEGFR2 (KDR) kinase, purified cytoplasmic domain KDR protein (Homo sapiens (Human)) for the following compound: Cc1ccc(F)c(C(=O)Nc2cccc(-c3[nH]c4ccccc4c3C(N)=O)c2)c1 < 5.00
